meta.source: PubChem BioAssay (NCI)

In this section we review reported growth values for a set of molecules.
- Tested on: EKVX NSCLC
- assay_protocol: NCI-60 one-dose screen, 48 h (100 = growth as untreated, 0 = no growth, -100 = all killed)
- condition_description: 10 µM unless noted
The panel holds about 83,000 compounds, 20% with a hit somewhere; the sample as a whole holds those more often.
measurement_kind: growth (%)

1. O=C(CNc1nc(-c2ccc(Cl)cc2)cs1)Nc1ccc(-c2nc3ccccc3s2)cc1
102
2. O=c1[nH]c(N2CCOCC2)nc2scc(-c3ccccc3)c12
53.3
3. Cc1ccc(NC(=O)c2ccc(CN3CCN(C)CC3)cc2)cc1Nc1nc(-c2cccnc2)cs1
48.3
4. COc1cc2ncnc(Oc3cccc(NC(=O)Nc4cc(C(C)(C)C(F)(F)F)on4)c3)c2cc1OC
26.1
5. CNC(=O)c1c(C)oc2cc(Oc3ncnc4cc(OC)c(OC)cc34)ccc12
113
